This listing pairs compounds with measured ED50.
# Test system: Streptococcus pyogenes
# Method Summary: Inhibitory concentration of compound against Streptococcus pyogenus septicemia in the mouse, administarted in OS route
# Assay type: functional
Answer with a number only, understood to be in mg/kg.

CO[C@H]1/C=C/O[C@@]2(C)Oc3c(C)c(O)c4c(O)c(c(/C=N/N5CCN(C)CC5)c(O)c4c3C2=O)NC(=O)/C(C)=C\C=C\[C@H](C)[C@H](O)[C@@H](C)[C@@H](O)[C@@H](C)[C@H](OC(C)=O)[C@@H]1C : 0.47

Prompt: Please look at this compound and report its ED50: CCN(CC)c1nc2c(s1)c1c(O)c3c(O)c(C)c4c(c32)C(=O)C(C)(O/C=C/C(OC)C(C)C(OC(C)=O)C(C)C(O)C(C)C(O)C(C)/C=C/C=C(/C)C(=O)N1)O4 (stereo not given)
Completion: 1.23

Prompt: Please look at this compound and report its ED50: CCCCN(CCCC)c1nc2c(s1)c1c(O)c3c(O)c(C)c4c(c32)C(=O)C(C)(O/C=C/C(OC)C(C)C(OC(C)=O)C(C)C(O)C(C)C(O)C(C)/C=C/C=C(/C)C(=O)N1)O4 (stereo not given)
Completion: 1.23

====

This listing pairs compounds with measured MIC90.
# Tested on: Mycobacterium avium
# Method Summary: 90% inhibition of the 20 Mycobacterium avium complex (MAC) clinical isolates
Reply with the number and its unit after it.

CCNc1nc2c(s1)c1c(O)c3c(O)c(C)c4c(c32)C(=O)C(C)(O/C=C/C(OC)C(C)C(OC(C)=O)C(C)C(O)C(C)C(O)C(C)/C=C/C=C(/C)C(=O)N1)O4 (stereo unspecified) : 64 µg/mL

Prompt: Please look at this compound and report its MIC90: CCCCN(CCCC)c1nc2c(s1)c1c(O)c3c(O)c(C)c4c(c32)C(=O)C(C)(O/C=C/C(OC)C(C)C(OC(C)=O)C(C)C(O)C(C)C(O)C(C)/C=C/C=C(/C)C(=O)N1)O4 (stereo unspecified)
Completion: 2 µg/mL

====

# Test system: Mycobacterium avium
# Method Summary: 90% inhibition of the 20 Mycobacterium avium complex (MAC) clinical isolates
Measured Quantity: MIC90 (µg/mL)
Answer with a number only, understood to be in µg/mL.

Prompt: Please look at this compound and report its MIC90: CCN(CC)c1nc2c(s1)c1c(O)c3c(O)c(C)c4c(c32)C(=O)C(C)(O/C=C/C(OC)C(C)C(OC(C)=O)C(C)C(O)C(C)C(O)C(C)/C=C/C=C(/C)C(=O)N1)O4 (centres undefined)
Completion: 2

Prompt: Please look at this compound and report its MIC90: COC1/C=C/OC2(C)Oc3c(C)c(O)c4c(O)c(c5sc(N6CCN(C)CC6)nc5c4c3C2=O)NC(=O)/C(C)=C\C=C\C(C)C(O)C(C)C(O)C(C)C(OC(C)=O)C1C (centres undefined)
Completion: 64

Prompt: Please look at this compound and report its MIC90: COC1/C=C/OC2(C)Oc3c(C)c(O)c4c(O)c(c5sc(N6CCOCC6)nc5c4c3C2=O)NC(=O)/C(C)=C\C=C\C(C)C(O)C(C)C(O)C(C)C(OC(C)=O)C1C (centres undefined)
Completion: 128

Prompt: Please look at this compound and report its MIC90: CCCCNc1nc2c(s1)c1c(O)c3c(O)c(C)c4c(c32)C(=O)C(C)(O/C=C/C(OC)C(C)C(OC(C)=O)C(C)C(O)C(C)C(O)C(C)/C=C/C=C(/C)C(=O)N1)O4 (centres undefined)
Completion: 64
